The entries below are paired with their reported AUC(0-inf).
- Assay: in vivo
- Applied Conditions: WKY, rat, in vivo, po, 20 mg/kg, AUC0-∞

[
  {
    "Given Smiles": "CCCCc1nc(Cl)c(CO)n1Cc1ccc(-c2ccccc2-c2nn[nH]n2)cc1",
    "AUC(0-inf), ng·h/mL": 39200
  },
  {
    "Given Smiles": "CCCCc1nc(Cl)c(C=O)n1Cc1ccc(-c2ccccc2-c2nn[nH]n2)cc1",
    "AUC(0-inf), ng·h/mL": 1410
  },
  {
    "Given Smiles": "CCCCc1nc(Cl)c(C(=O)O)n1Cc1ccc(-c2ccccc2-c2nnn[nH]2)cc1",
    "AUC(0-inf), ng·h/mL": 78300
  }
]

* * *

- Assay: in vivo
- Applied Conditions: WKY, rat, in vivo, po, 20 mg/kg, AUC0-t
Measure: AUC(0-t) (ng·h/mL)

[
  {
    "Compound": "CCCCc1nc(Cl)c(C(=O)O)n1Cc1ccc(-c2ccccc2-c2nnn[nH]2)cc1 [E-3174]",
    "Observed": 65000
  },
  {
    "Compound": "CCCCc1nc(Cl)c(C=O)n1Cc1ccc(-c2ccccc2-c2nn[nH]n2)cc1 [E-3179]",
    "Observed": 1340
  },
  {
    "Compound": "CCCCc1nc(Cl)c(CO)n1Cc1ccc(-c2ccccc2-c2nn[nH]n2)cc1 [Losartan, Losartan potassium]",
    "Observed": 29900
  }
]

* * *

The entries below are paired with their reported half-life.
- Assay: in vivo
- Applied Conditions: SHR, rat, in vivo, po, 20 mg/kg, t1/2z
Measure: half-life (h)

[
  {
    "Given Smiles": "CCCCc1nc(Cl)c(C(=O)O)n1Cc1ccc(-c2ccccc2-c2nnn[nH]2)cc1",
    "Observed": 10.1
  },
  {
    "Given Smiles": "CCCCc1nc(Cl)c(CO)n1Cc1ccc(-c2ccccc2-c2nn[nH]n2)cc1",
    "Observed": 5.91
  },
  {
    "Given Smiles": "CCCCc1nc(Cl)c(C=O)n1Cc1ccc(-c2ccccc2-c2nn[nH]n2)cc1",
    "Observed": 5.51
  }
]

* * *

The entries below are paired with their reported MRT inf.
- Assay: in vivo
- Applied Conditions: WKY, rat, in vivo, po, 20 mg/kg, MRT 0-∞
- Method: The pharmacokinetic study was described as follows. The UHPLC-TQ-MS analysis was conducted on an LC-30 AD ultra high-performance liquid chromatograph (Shimadzu, Japan) connected to an AB 4500 (AB Sciex, United States) Triple Quadrupole Mass Spectrometer with an ESI source. […]

[
  {
    "Compound": "CCCCc1nc(Cl)c(CO)n1Cc1ccc(-c2ccccc2-c2nn[nH]n2)cc1 [Losartan, Losartan potassium]",
    "MRT inf (h)": 16.7
  },
  {
    "Compound": "CCCCc1nc(Cl)c(C=O)n1Cc1ccc(-c2ccccc2-c2nn[nH]n2)cc1 [E-3179]",
    "MRT inf (h)": 8.79
  }
]

* * *

The entries below are paired with their reported MRT inf.
- Assay: in vivo
- Applied Conditions: SHR, rat, in vivo, po, 20 mg/kg, MRT 0-∞
- Description: The pharmacokinetic study was described as follows. The UHPLC-TQ-MS analysis was conducted on an LC-30 AD ultra high-performance liquid chromatograph (Shimadzu, Japan) connected to an AB 4500 (AB Sciex, United States) Triple Quadrupole Mass Spectrometer with an ESI source. […]

[
  {
    "Given Smiles": "CCCCc1nc(Cl)c(C(=O)O)n1Cc1ccc(-c2ccccc2-c2nnn[nH]2)cc1",
    "MRT inf, h": 15.1
  },
  {
    "Given Smiles": "CCCCc1nc(Cl)c(C=O)n1Cc1ccc(-c2ccccc2-c2nn[nH]n2)cc1",
    "MRT inf, h": 9.57
  },
  {
    "Given Smiles": "CCCCc1nc(Cl)c(CO)n1Cc1ccc(-c2ccccc2-c2nn[nH]n2)cc1",
    "MRT inf, h": 9.65
  }
]
